pIC50: −log10 of the molar value.
Observed pIC50, system TGF R1 kinase (Homo sapiens).
ASSAY READOUT: pIC50

NC(=O)c1cnccc1Nc1nc(-c2cc(Cl)ccc2F)nc2c1CCC2 ... 7.28

(A) Cc1cnccc1Nc1nc(-c2cc(Cl)ccc2F)nc2c1COC2
(B) CN1CCCC1CCNC(=O)c1cnccc1Nc1nc(-c2cc(Cl)ccc2F)nc2c1CCC2 (stereo not drawn)
Problem: Between the entries labeled A and B , whose measured pIC50 is lower? Write down the label of the entry you select.
Result: A
(A: 5.51, B: 6.51)

(a) Fc1ccccc1-c1cc(Nc2ccncc2)n2ncnc2n1
(b) O=C(NCCCN1CCOCC1)c1cnccc1Nc1nc(-c2cc(Cl)ccc2F)nc2c1CCC2
Problem: Pick one: a or b . Which one has the lower reported pIC50? Choose, then provide that item's label.
Result: a
(a: 5.05, b: 6.28)

(A) CNC(=O)c1cnccc1Nc1nc(-c2ccccc2)nc2c1CCC2
(B) CNC(=O)c1cnccc1Nc1nc(-c2cc(Cl)ccc2F)nc2c1CCC2
(C) COC(=O)c1cnccc1Nc1nc(-c2ccccc2)nc2c1CCC2
Problem: Form: Sort by [pIC50] Order [ ascending ] // format: requested-order list of labels
Result: C, A, B

Reference source for all entries: patent US7223766B2
